TESTED_ON: Alpha-2A adrenergic receptor (Homo sapiens)
Sequence (P08913 whole entry): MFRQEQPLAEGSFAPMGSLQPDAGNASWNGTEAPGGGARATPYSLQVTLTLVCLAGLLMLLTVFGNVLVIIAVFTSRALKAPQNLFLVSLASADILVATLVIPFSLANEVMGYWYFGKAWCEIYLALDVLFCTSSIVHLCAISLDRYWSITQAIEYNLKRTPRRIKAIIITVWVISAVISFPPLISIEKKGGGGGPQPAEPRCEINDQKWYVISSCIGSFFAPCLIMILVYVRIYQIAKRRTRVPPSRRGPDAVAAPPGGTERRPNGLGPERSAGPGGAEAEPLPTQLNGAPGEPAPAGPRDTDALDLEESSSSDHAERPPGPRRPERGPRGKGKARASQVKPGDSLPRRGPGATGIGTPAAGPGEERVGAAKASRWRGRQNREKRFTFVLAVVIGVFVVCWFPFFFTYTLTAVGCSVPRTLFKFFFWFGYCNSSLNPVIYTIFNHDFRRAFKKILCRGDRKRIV
Assay type: functional, cell-based
# AC50 annotations
VALUE_KIND: AC50

INSERT INTO assay_data (compound, tested_on, value_kind, data_value) VALUES
  ('CCOC(=O)C1=C(C)NC(C)=C(C(=O)OC)C1c1cccc([N+](=O)[O-])c1 (stereo not drawn) [NITRENDIPINE]', 'Alpha-2A adrenergic receptor (Homo sapiens)', 'AC50', '> 10 µM'),
  ('CCN1CCCC1CNC(=O)c1cc(S(=O)(=O)CC)c(N)cc1OC (stereo not drawn) [AMISULPRIDE]', 'Alpha-2A adrenergic receptor (Homo sapiens)', 'AC50', '13 µM'),
  ('CCCCC1C(=O)N(c2ccccc2)N(c2ccccc2)C1=O [PHENYLBUTAZONE]', 'Alpha-2A adrenergic receptor (Homo sapiens)', 'AC50', '> 10 µM'),
  ('O=C(O)CCNC(=O)c1ccccc1 [BETAMIPRON]', 'Alpha-2A adrenergic receptor (Homo sapiens)', 'AC50', '> 30 µM'),
  ('C[C@@H](Oc1cc(-c2cnn(C3CCNCC3)c2)cnc1N)c1c(Cl)ccc(F)c1Cl [CRIZOTINIB]', 'Alpha-2A adrenergic receptor (Homo sapiens)', 'AC50', '15 µM'),
  ('CC1=C(C)C(=O)C(C(CCCCCC(=O)O)c2ccccc2)=C(C)C1=O (stereo not drawn) [SERATRODAST]', 'Alpha-2A adrenergic receptor (Homo sapiens)', 'AC50', '> 30 µM'),
  ('C/C(=C\C(=O)OCCCCCCCCC(=O)O)C[C@@H]1OC[C@H](C[C@@H]2O[C@H]2[C@@H](C)[C@H](C)O)[C@@H](O)[C@H]1O [MUPIROCIN]', 'Alpha-2A adrenergic receptor (Homo sapiens)', 'AC50', '> 10 µM'),
  ('O=C1CCc2cc(OCCCCc3nnnn3C3CCCCC3)ccc2N1 [CILOSTAZOL]', 'Alpha-2A adrenergic receptor (Homo sapiens)', 'AC50', '> 30 µM');

====

TESTED_ON: Endothelin receptor type B (Homo sapiens)
Sequence (P24530 whole entry): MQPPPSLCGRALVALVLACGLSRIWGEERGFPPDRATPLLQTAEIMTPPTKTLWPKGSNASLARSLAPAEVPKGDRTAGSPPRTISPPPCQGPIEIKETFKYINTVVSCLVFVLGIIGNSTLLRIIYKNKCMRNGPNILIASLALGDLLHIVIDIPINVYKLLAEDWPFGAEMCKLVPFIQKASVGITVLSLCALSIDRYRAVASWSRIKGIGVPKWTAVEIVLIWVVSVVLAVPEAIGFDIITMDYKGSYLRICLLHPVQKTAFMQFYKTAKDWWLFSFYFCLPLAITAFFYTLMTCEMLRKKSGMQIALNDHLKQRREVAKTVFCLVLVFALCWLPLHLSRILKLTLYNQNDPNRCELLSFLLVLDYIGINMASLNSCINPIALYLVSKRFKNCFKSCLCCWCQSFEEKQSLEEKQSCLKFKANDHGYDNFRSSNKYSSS
Listed below: AC50 values for each entry.
VALUE_KIND: AC50

INSERT INTO assay_data (molecule, data_value) VALUES
  ('N[C@@H](CC(=O)N1CCn2c(nnc2C(F)(F)F)C1)Cc1cc(F)c(F)cc1F', '> 10 µM'),
  ('CC(N)C(O)c1ccccc1 (configuration not stated)', '> 30 µM'),
  ('CCOC(=O)C1=C(C)NC(C)=C(C(=O)OC)C1c1cccc([N+](=O)[O-])c1 (configuration not stated)', '> 30 µM'),
  ('CC(CCc1ccc(O)cc1)NCCc1ccc(O)c(O)c1 (configuration not stated)', '> 30 µM'),
  ('CC(C)N(CCC(C(N)=O)(c1ccccc1)c1ccccn1)C(C)C (configuration not stated) [DISOPYRAMIDE]', '> 30 µM'),
  ('CN(C)CCc1c[nH]c2ccc(Cn3cncn3)cc12', '> 30 µM'),
  ('C=CC[C@@H]1/C=C(\C)C[C@H](C)C[C@H](OC)[C@H]2O[C@@](O)(C(=O)C(=O)N3CCCC[C@H]3C(=O)O[C@H](/C(C)=C/[C@@H]3CC[C@@H](O)[C@H](OC)C3)[C@H](C)[C@@H](O)CC1=O)[C@H](C)C[C@@H]2OC [TACROLIMUS ANHYDROUS]', '> 30 µM'),
  ('[H]/N=C(/N)N/C(=N/[H])NCCc1ccccc1', '> 30 µM'),
  ('CCCC(CCC)C(=O)O', '> 30 µM'),
  ('COc1cc2nc(N3CCN(C(=O)C4CCCO4)CC3)nc(N)c2cc1OC (configuration not stated)', '> 30 µM'),
  ('OC1(c2ccc(Cl)cc2)c2ccccc2C2=NCCN21 (configuration not stated)', '33.1 µM'),
  ('CN1CCN(C2=Nc3ccccc3Oc3ccc(Cl)cc32)CC1', '> 30 µM');

====

For Sodium-dependent noradrenaline transporter (Homo sapiens, UniProt P23975), measured AC50 is reported for the entries below.
VALUE_KIND: AC50

INSERT INTO measurements (compound, data_value) VALUES
  ('CCCN(CCC)C(=O)Cc1c(-c2ccc(Cl)cc2)nc2ccc(Cl)cn12', '> 30 µM'),
  ('CC12CC3CC(C)(C1)CC(N)(C3)C2 [MEMANTINE]', '> 30 µM'),
  ('CC(C(=O)O)c1ccc2c(c1)[nH]c1ccc(Cl)cc12 (stereo not drawn)', '> 30 µM');

====

Endpoint: AC50. System: D(1A) dopamine receptor (Homo sapiens). Items follow. Also: assay procedure not described here.
Sequence (P21728 whole entry): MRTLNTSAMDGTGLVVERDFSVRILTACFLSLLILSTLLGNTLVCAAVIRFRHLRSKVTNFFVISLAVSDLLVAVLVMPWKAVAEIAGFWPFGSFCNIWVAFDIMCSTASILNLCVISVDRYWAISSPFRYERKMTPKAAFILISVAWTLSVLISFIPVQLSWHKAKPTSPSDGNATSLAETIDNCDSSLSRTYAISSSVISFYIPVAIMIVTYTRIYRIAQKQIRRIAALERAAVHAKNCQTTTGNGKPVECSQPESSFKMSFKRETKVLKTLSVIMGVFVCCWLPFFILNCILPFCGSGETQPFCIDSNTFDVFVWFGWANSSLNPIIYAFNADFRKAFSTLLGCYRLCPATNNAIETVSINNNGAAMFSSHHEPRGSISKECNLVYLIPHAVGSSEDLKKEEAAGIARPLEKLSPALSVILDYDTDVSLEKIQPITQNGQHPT
VALUE_KIND: AC50

INSERT INTO results (compound, tested_on, value_kind, data_value) VALUES
  ('Cc1ncc(COP(=O)(O)O)c(C=O)c1O [PYRIDOXAL PHOSPHATE ANHYDROUS]', 'D(1A) dopamine receptor (Homo sapiens)', 'AC50', '> 30 µM'),
  ('CC(=O)O[C@]1(C(C)=O)CC[C@H]2[C@@H]3C=C(Cl)C4=CC(=O)CC[C@]4(C)[C@H]3CC[C@@]21C [CHLORMADINONE ACETATE]', 'D(1A) dopamine receptor (Homo sapiens)', 'AC50', '> 30 µM'),
  ('Nc1c2ccccc2nc2ccccc12', 'D(1A) dopamine receptor (Homo sapiens)', 'AC50', '11.7 µM'),
  ('CC(C)Cc1ccc(C(C)C(=O)O)cc1 (centres undefined)', 'D(1A) dopamine receptor (Homo sapiens)', 'AC50', '> 30 µM'),
  ('CC[C@H](c1ccc(O)cc1)[C@@H](CC)c1ccc(O)cc1', 'D(1A) dopamine receptor (Homo sapiens)', 'AC50', '15.5 µM'),
  ('COC(=O)c1ccc(O)cc1', 'D(1A) dopamine receptor (Homo sapiens)', 'AC50', '> 30 µM'),
  ('CN1C(C(=O)Nc2ccccn2)=C(O)c2ccccc2S1(=O)=O', 'D(1A) dopamine receptor (Homo sapiens)', 'AC50', '> 30 µM'),
  ('CCC(=O)O[C@]1(C(=O)CCl)[C@@H](C)C[C@H]2[C@@H]3C[C@H](F)C4=CC(=O)C=C[C@]4(C)[C@@]3(F)[C@@H](O)C[C@@]21C [HALOBETASOL PROPIONATE]', 'D(1A) dopamine receptor (Homo sapiens)', 'AC50', '> 30 µM'),
  ('C[C@]1(Cn2ccnn2)[C@H](C(=O)O)N2C(=O)C[C@H]2S1(=O)=O', 'D(1A) dopamine receptor (Homo sapiens)', 'AC50', '> 30 µM');

====

The reader will find AC50 measurements below, all made with Histamine H3 receptor (Homo sapiens, UniProt Q9Y5N1).
Sequence (Q9Y5N1 whole entry): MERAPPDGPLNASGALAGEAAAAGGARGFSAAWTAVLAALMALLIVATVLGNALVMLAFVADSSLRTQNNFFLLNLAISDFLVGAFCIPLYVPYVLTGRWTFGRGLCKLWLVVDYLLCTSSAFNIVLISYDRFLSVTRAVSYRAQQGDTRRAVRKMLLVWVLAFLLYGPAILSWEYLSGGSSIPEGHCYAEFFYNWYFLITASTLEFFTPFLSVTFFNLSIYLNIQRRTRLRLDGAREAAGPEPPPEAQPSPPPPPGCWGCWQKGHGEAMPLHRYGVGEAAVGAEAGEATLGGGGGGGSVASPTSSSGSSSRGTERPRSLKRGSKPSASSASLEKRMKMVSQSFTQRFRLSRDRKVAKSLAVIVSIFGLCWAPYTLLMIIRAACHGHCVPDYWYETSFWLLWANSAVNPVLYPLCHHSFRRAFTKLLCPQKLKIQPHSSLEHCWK
VALUE_KIND: AC50

INSERT INTO assay_data (compound, data_value) VALUES
  ('CCC(COC(=O)c1cc(OC)c(OC)c(OC)c1)(c1ccccc1)N(C)C (configuration not stated) [TRIMEBUTINE]', '> 30 µM'),
  ('Oc1ccc2c(c1)CC[C@H](c1ccccc1)[C@@H]2c1ccc(OCCN2CCCC2)cc1 [LASOFOXIFENE]', '0.99 µM'),
  ('CN(C)CCCNc1c2ccccc2nc2cccc([N+](=O)[O-])c12 [NITRACRINE]', '> 10 µM'),
  ('CC(C)(C)NCC(O)c1cc(O)cc(O)c1 (configuration not stated) [TERBUTALINE]', '> 30 µM'),
  ('CO[C@H]1/C=C/O[C@@]2(C)Oc3c(C)c(O)c4c(O)c(c(/C=N/N5CCN(C)CC5)c(O)c4c3C2=O)NC(=O)/C(C)=C\C=C\[C@H](C)[C@H](O)[C@@H](C)[C@@H](O)[C@@H](C)[C@H](OC(C)=O)[C@@H]1C [RIFAMPIN]', '25 µM'),
  ('COc1ccc2nc3cc(Cl)ccc3c(Nc3cc(CN4CCCC4)c(O)c(CN4CCCC4)c3)c2n1 [PYRONARIDINE]', '> 30 µM'),
  ('COc1cc2nccc(Oc3ccc(NC(=O)C4(C(=O)Nc5ccc(F)cc5)CC4)cc3)c2cc1OC [CABOZANTINIB]', '> 30 µM');
